# % residual fluorescence of labeled mAb per record follows
tgt: T1, human CD3 (human, UniProt P07766 23-207; P09693 23-182; P04234 22-171)
T1 construct: whole, on cells; also called CD3 on Jurkat T cells; CD3 on primary human T cells
procedureSummary: flow competition on Jurkat, 100 nM unlabeled mAb; competitor AF488-UCHT1 5 nM
Respond with the bare value in %.

binder	% residual fluorescence of labeled mAb, %
F282-2D5 (antibody, V domains shown, also called F282-2D5-2) VH: QVQLQQPGTELVKPGASVKLSCKASGYTFTSYWMHWVKQRPGQGLEWIGNINPSNGGTNYNENFKTKATLTVDKSSSTAYMQLSSLTSEDSAVYYCARDRSGQYYFDYWGQGTTLTVSS VL: DIVMSQSPSSLAVSAGEKVTMSCKSSQSLLNSRTRKNYLAWYQQKPGQSPKLLIYWASTRESGVPDRFTGSGSGTDFTLTISSVQAEDLAVYYCIQSYHLRTFGGGTILEIK	64
F332-5D4 (antibody, mouse IgG2b, V domains shown, also called F332-5D4-2; F332-5D4 (5F8)) VH: QVQLQQPGAELGKPGTSVKLSCKASGYTFTSYWMHWVKQRPGQGLEWIGNINPNGGDSNYNEKFKSKATLTVDMSSSTAYMQLSTLTSEDSAVYYCTRDISGQYYFDFWGQGTSLTVFS VL: DILMSQSPSSLAVSAGEQVTMSCKSSQSLLNSRTRKNYLAWYQQKPGQSPKLLIFWASTRKSGVPDRFTGSGSGTYFTLTINSVQTEDLAVYYCTQSYSLRTFGGGTKLEIK	73

## Task Looking for the measured % residual fluorescence of labeled mAb of F332-4D6 (antibody, mouse IgG2a, V domains shown, also called F332-4D6-2; F322-4D6) VH: QVQLQQSGAELGKPGTSVKLSCKASGYTFTSYWIHWVKQRPGQGLEWIGNINPNSGSTNYNEKFKRKATLTADKSSSTAYMQLSTLTSEDFAVYYCTRDTSGQYYFDYWGQGTTLTVSS VL: DIVMSQSPSSLAVSAGEKVTMSCKSSQSLLNSRTRKNYLAWYQQKPGQSPKVLIYWASTRESGVPDRFTGSGSGTDFTLTISSVQAEDLAVYYCKQSYHLRTFGGGTKLEIK , can you help?
## Result 76

## Task Follow-up item: F332-7C5 (antibody, mouse IgG2a, V domains shown, also called F332-7C5-2; F332-7C5 (5E12, 10A8)) VH: QVQLQQPGAELGKPGTSVKLSCKASGYTFTSYWMHWVKQRPGQGLEWIGNINPSSGITNYNERFKNKATLTVDKSSTTAYMQLSILTSEDSAVYYCSRDISGQYYFNFWGQGTTLTVSS VL: DIVMSQSPSSLAVSAGEKVTMSCKSSQSLLNSRTRKNYLAWYQQKPGQSPKLLIYWASTRESGVPDRFTGTGSGTDFTLTISSVQAEDLAVYYCKQSYNLRTFGGGTKLEIK
## Result 64

## Task Entry to check: F332-13B4 (antibody, mouse IgG2a, V domains shown, also called F332-13B4-2) VH: QVQLQQSGPELVKPGASVKISCKASGYSFTNSYVHWVKQTPGQGLEWIGWIYPGSTNIKYNEKFKGKATLTADTSSSTVYMQLSSLTSEDSAVYFCARDGSYFFDYWGQGTTLTVSS VL: DIVMSQSPSSLAVSAGEKVTMTCKSSQSLLNSRTRKNYLAWYQQKPGQSPKLLIYWASTRESGVPDRFTGSGSGTDFTLTISSVQAEDLAVYYCKQSYILRTFGGGTKLEIK
## Result 72

## Task Quick one: F332-8F7 (antibody, mouse IgG2a, V domains shown, also called F332-8F7-3) VH: QVQLQQPGAELGKPGTSVKLSCKASGYTFTSYWIHWVKQRPGQGLEWIGNINPNSGSTNYNEKFKNKATLTVDKSSSTASMQLSTLTSEDSAVYYCTRDISGQYYFDYWGQGTTLTVSS VL: DIVMSQSPSSLAVSTGGEVTMSCKSSQSLLNSRTRKNYLAWYQQKPGQSPKLLIYWASTRESGVPDRFTGSGSGTDFTLTISSVQAEDLAVYYCIQSYSLRTFGGGTKLGIK
## Result 59

## Task Repeat for the following binder: F332-10B6 (antibody, mouse IgG2a, V domains shown, also called F332-10B6-2; F332-12B5-1) VH: QVQLQQPGAELGKPGTSVNLSCKASGYTFTDYWIHWVKQRPGQGLEWIGNINPNSGDTNYNENFKTKATLTVDRSSSTAYMQLSSLTSEDSAVYYCTRDISGQYYFDFWGQGTTLTVSS VL: DIVMSQSPSSLAVSAGEKVTMSCKSSQSLLNSRTRKNYLAWYQQKPGQSPKLLIYWASTRESGVPDRFTGSGSGTDFTLTISSVQAEDLAVYYCIQSYNLRTFGGGTKLEIK
## Result 80
